B1: library; numbered along this chain (parent)
chain: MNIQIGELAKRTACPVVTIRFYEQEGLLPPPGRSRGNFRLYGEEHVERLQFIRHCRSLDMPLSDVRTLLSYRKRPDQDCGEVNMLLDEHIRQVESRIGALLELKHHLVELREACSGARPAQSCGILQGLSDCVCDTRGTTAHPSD

# Variants of: B1
# MEASUREMENT NOTES: sfGFP reporter fluorescence (15 h) (µM FITC); higher = stronger transcriptional activation
# EXPERIMENTAL PARAMETERS: library round: Round 1; ligand: 30 µM Zn
Assign Met to entries whose sfGFP reporter fluorescence meets or exceeds 0.7; assign Not met to the rest.

Field: example entries. Status: answers known.
MUTATION ID	DISCRETE LABEL
N83T E112F	Not met
D64T L107C	Met
P61E D64K D131C	Not met
P61L D64K	Not met
C55L K104V	Not met

Asked: // inclusive: sfGFP reporter fluorescence at least 0.7? input: P61T I97N K104V
Given back: Not met

Asked: // inclusive: sfGFP reporter fluorescence at least 0.7? input: P61N I90L K104G
Given back: Not met

Asked: // inclusive: sfGFP reporter fluorescence at least 0.7? input: N83T I97N
Given back: Not met

Asked: // inclusive: sfGFP reporter fluorescence at least 0.7? input: N83T K104V L107I
Given back: Not met

Asked: // inclusive: sfGFP reporter fluorescence at least 0.7? input: D64K I97S
Given back: Met

Asked: // inclusive: sfGFP reporter fluorescence at least 0.7? input: "R96S"
Given back: Not met

Asked: // inclusive: sfGFP reporter fluorescence at least 0.7? input: M60L D64K D131C
Given back: Met

Asked: // inclusive: sfGFP reporter fluorescence at least 0.7? input: N83T I97C
Given back: Not met

Asked: // inclusive: sfGFP reporter fluorescence at least 0.7? input: P61N D64T D131C
Given back: Met

Asked: // inclusive: sfGFP reporter fluorescence at least 0.7? input: D64A C134M
Given back: Met

Asked: // inclusive: sfGFP reporter fluorescence at least 0.7? input: N83T D131H
Given back: Not met
